Ref: the supplement of paper PMC9170038

System: K4 kissing-loop RNA reporter
Assay: apparent KD of K4 kissing-loop reporter; higher = weaker reporter binding
Details: Eterna round: R107; input ligand: theophylline 20 uM
readout kind: apparent KD of K4 kissing-loop reporter (nM)
Value expressed in nM; do not type the unit.

// apparent KD of K4 kissing-loop reporter value for GCGCGUCAUGUCAGCGGUGACACUGUCGAUACCAGUGCCGCAAGGCGCCCUUGGCAGCGACGUGCUGGAGUGAUGUUCCAGCGUU [#2 Exclusion - Theophylline A Attempt #29 (HarryS)] : 152

// apparent KD of K4 kissing-loop reporter value for `GCCUACGUAGCAGGAUAUAGGUAAGUGAGUGAUGUUCAAGAGUUCUGGAGUGAUGUUCCAAUCUGACUAGAAGGGCUACGUAGGC` : 57.3

// apparent KD of K4 kissing-loop reporter value for AACUGUCAAGGACAACAUUACUGCAGUGAUACCAGCAUCGAAAGAUGCCCUUGGCAGCACCAACUUGCAGUGAUGUUGCAAGUAA [BrourdMod 5 - Jieux - Exclusion - Theophylline A] : 188

// apparent KD of K4 kissing-loop reporter value for `GGCAUCCAUGGACAUAGUGAUGUUAUGUACCGAGGACCGGUACGGCCGCCACUCGGCCAUGGAUGCCGCAAUCGGAAACGAUUGC` : 667

* * *

Give measured apparent KD of MS2 coat protein for each item. Keep answers brief.
Tested on: MS2 coat protein
Assay: apparent KD of MS2 coat protein; higher = weaker reporter binding
Conditions: Eterna round: R107; input ligand: theophylline 20 uM
A complete answer gives the number and then names the unit.

// apparent KD of MS2 coat protein value for GGACUAACCAGAAGGAGCGGCACGCAGAAACUGCAAAAUCCUCCGCACGAGGAUCACCCGUGUCAGGUAGGUCGCUGGUUAGUCG [ArgBX 28] : 39.8 nM

// apparent KD of MS2 coat protein value for AACGUAUACAGAAGGAGCGUGAUUUGUGUUACUCAUUCAUAUACAUGAGGAUCACCCAUGUCACAGGUAGGUCGCUGUAUUCGUA [JR_ExcArginiB_Sub022] : 128 nM

// apparent KD of MS2 coat protein value for UGACAUUGCUCAGAUACCAGACAUGAGCAUCAGCCAUGUACCAAGAGUACAUGUUAAAGUGUCCCUUGGCAGCUGAGCAAUGUCU [Mod of Eli's TheoBX5 #AlternateMS2 v3] : 193 nM

// apparent KD of MS2 coat protein value for GCACGGUAGUCGGCCGCCACUGAAACAUGUGUCUACAUGAGGAUCACCCAUGUGGGUGUGUUUUGUAGGACCGGGACAAGACCCG [#11 Same State - Tryptophan B] : 28.1 nM

// apparent KD of MS2 coat protein value for `AGCAGCUGGUUUCUUUUCUUUACAGCUGCACGAGGACCGGUACGGCCGCCACUCGAGGACAUGAGGAUCACCCAUGUGCCGGUCG` : 40.6 nM

* * *

Give measured apparent KD of MS2 coat protein for each item. Keep answers brief.
System: MS2 coat protein
Assay: apparent KD of MS2 coat protein; higher = weaker reporter binding
Conditions: Eterna round: R107; input ligand: tryptophan 2.4 mM
Value expressed in nM; do not type the unit.

// apparent KD of MS2 coat protein value for AAAAUCCUACCUGAGGAUCACCCAGGUGAAGGAGCGCCCGAAAGGGCAGGUAGGUCGCACCUGAGGAUCACCCUGGUAAACCUAA [ArgEX 22 #DoubleMS2 #OpenEnded] : 40.6

// apparent KD of MS2 coat protein value for GGAUAGAUAGGAGAUACCAGAUACAUCAACAUGAGGAUCACCCAUGUGUCUGCACUAAGUGUCCCUUGGCAGCUCGGAGAUCUGA [#16 Same State - Theophylline B] : 32.4

// apparent KD of MS2 coat protein value for AAAUAAAUAACUGAUACCAGUGGACUGACAUGAGGAUCACCCAUGUUGGGUUUUGUUGUCCACCCUUGGCAGCAGGGAUAUAAAA [#24 Exclusion-TheophyllineB] : 43.4

// apparent KD of MS2 coat protein value for AUGUAGAACCGAAGGAGCGCGAUAACAUGAGGAUCACCCAUGUAGUUUUGGUGGCUUCGAUCGCAGGUAGGUCGCGGAAGUAGUA [#03 Exclusion - Arginine B] : 55.4

* * *

Give measured apparent KD of K4 kissing-loop reporter for each item. Keep answers brief.
System: K4 kissing-loop RNA reporter
Assay: apparent KD of K4 kissing-loop reporter; higher = weaker reporter binding
Details: Eterna round: R107; input ligand: FMN 200 uM
Value expressed in µM; do not type the unit.

The measured apparent KD of K4 kissing-loop reporter that `UCCUGCAAUCUGCCACGAAAGUGGAUGGAUACCAGAGUCGAAAGACUCCCUUGGCAGCCAGUGAUGUUGGAAGCAGGUAAAUAAA` showed for K4 kissing-loop RNA reporter is 0.268

The measured apparent KD of K4 kissing-loop reporter that UCGGGCGGCUGAAGGAGCGGGCGGGCCCGAGUGAUGUUCGGGUGGGCUGUGAGGCCCGGAGCCCAGGUAGGUCGCGGUUCCGCCC [#2 Same State - Arginine B Attempt #28 (HarryS)] showed for K4 kissing-loop RNA reporter is 0.262

The measured apparent KD of K4 kissing-loop reporter that CAUUCAGUGAUGUUGGAAGGCGAGCGGGAUACCAGCGGAGACUCACGCCCUUGGCAGCCCACAUAUCCCAGGUAGAUAAUAGUUC [Same State - Theophylline A (Freestyle 6)] showed for K4 kissing-loop RNA reporter is 0.237

The measured apparent KD of K4 kissing-loop reporter that UGAUUGCCAGUGAUGUUGGCAUAAACUGAAGGAGCGCGUGAAAACGCAGGUAGGUCGCAGUACCAUGCCAAUUGAUCGAAAGAUC [KL-XArg-A2] showed for K4 kissing-loop RNA reporter is 0.143

The measured apparent KD of K4 kissing-loop reporter that UGAUACCAGACUGAUACCAGCCACAGAGUCAAAGACUCUGAUAAAGGUACCAGUGAUGUUGGCCCUUGGCAGCAGUCUGGUAUCU [TheoBX 17 #SwitchBubble #StaticStem] showed for K4 kissing-loop RNA reporter is 0.158

The measured apparent KD of K4 kissing-loop reporter that AAACAUUGGUCGGAUACCAGUUAGACCGAUAGGUCAAAACUGGAGUGAUGUUCCUAAAAUAACCCUUGGCAGCCGACCGAUGAAA [MAT - Same State Theophlline B - Mod of Eli - D5] showed for K4 kissing-loop RNA reporter is 0.954

The measured apparent KD of K4 kissing-loop reporter that AGCUGUAGCAGAAGGAGCGACAGUUAUUCUGAUAGUACUCUGAGUGAUGUUCAGAACGACUGUCAGGUAGGUCGCUGUUACAGCU [Arg B Ex t8b] showed for K4 kissing-loop RNA reporter is 0.166

The measured apparent KD of K4 kissing-loop reporter that AUUUUUUUAUCAGGAUAUUAGUGUUGGUUUGUUUUGUUAGUGAUGUUGAUAUUUGUUUUAUGUAUUUAAGAAGGGAUUGUGAUGU [huupullin] showed for K4 kissing-loop RNA reporter is 0.473

* * *

Test system: MS2 coat protein
Experiment: apparent KD of MS2 coat protein; designed switch direction (-1 OFF switch, 1 ON switch): 1; higher = weaker reporter binding
Conditions: Eterna round: R95; input ligand: microRNA oligo, concentration not stated
Give measured apparent KD of MS2 coat protein for each item. Keep answers brief.
Value expressed in µM; do not type the unit.

// apparent KD of MS2 coat protein value for CAGCGCUGUCGAGAGGAUAUGCGGUGAUGGACAUGAGGAUCACCCAUGUUAGCGACAGCAUCACGGCAGAAGGCUCUACCGCUGC [Soteed Omei mod 18] (puzzle: Same State 2) : 0.0188

// apparent KD of MS2 coat protein value for AGAAAAGUUUACGAGGAUAUGUUCCGCAUAACAUGAGGAUCACCCAUGUGAACAAGAAAGGCGACGCAGAAGGCGUGAGCAAAAG [Mat - Same State 2 - Mod of UCT - D98] (puzzle: Same State 2) : 0.0821

// apparent KD of MS2 coat protein value for AACAAUCUAUCUGAGGAUAUCAUGAUAUAAACAUGAGGAUCACCCAUGUGCAGGAAAACUGCAUAUGAGAAGGCAGAUAGAUUGA [salish99_ss2_r3_031] (puzzle: Same State 2) : 0.232

* * *

Give measured apparent KD of K4 kissing-loop reporter for each item. Keep answers brief.
Tested on: K4 kissing-loop RNA reporter;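 note: bound reporter read as fluorescence of individual clusters on recovered sequencing chips by microscopy, with normalized cluster intensities fitted with a binding model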
Experiment: apparent KD of K4 kissing-loop reporter; higher = weaker reporter binding
Conditions: Eterna round: R107; input ligand: theophylline 20 uM

// apparent KD of K4 kissing-loop reporter value for GCAAAGUGUCAUAUUAUCUAGCAGCUGCGAAAGGAUAUGAGAGUGCUCAGAAGGUUCUUGGCGGAGUGAUGUUCCGCGUAAAUGG [theeternabot_exclusion_KL_FMN_A_22] : 103 nM

// apparent KD of K4 kissing-loop reporter value for ACUAUCCGUAUAUAUAAGAUAGCUGGAGAUACCAGUUCAAUCUUGAACCCUUGGCAGCUCACCACCAAGUGAUGUUUGGCACGAC [theeternabot_sameState_KL_Theo_A_42] : 292 nM

// apparent KD of K4 kissing-loop reporter value for AAGGGCUAGGCGGCCGCCACUGGUUGUGAACACAUACGAGCCAGUGAUGUUGGUAUUGUGUGCGGCAGGACCGGGCCUAGCCGAA [Exclusion - Tryptophan B (Freestyle 23)] : 300 nM

// apparent KD of K4 kissing-loop reporter value for AGCAUUAUCAGAAGGAGCGUGUAUAAUUCAAGAGAAUUGUUUUCGAGUGAUGUUCGUAAUACACAGGUAGGUCGCUGAUAUAGCA [JR_ExcArginiB_Sub001] : 302 nM
